Target: T1, His-tagged P3028 peptide (PGE73) (human)
T1 construct: albumin-derived peptide, in solution at 0.5 ug/mL; not shown: His-tag
T1 peptide: VFDEFKPLVEEPQNLIK
Assay: PEPSCAN ELISA, peptide on card
# if value of RAMPO Score reaches 500, tag rule met; if it stays below, tag rule not met

- KKLDTMFVKLSLFTER [SEQ ID NO: 315 KKLDTMFVKLSLFTER]: rule not met

### Prompt # check: RAMPO Score of KKLDTFFVKASLFTER [SEQ ID NO: 332 KKLDTFFVKASLFTER] is greater than or equal to 500
### Response rule not met

### Prompt And then KKLDMFFVKLSLFTER [SEQ ID NO: 305 KKLDMFFVKLSLFTER] , what is it?
### Response rule not met

### Prompt Also, KKLDTFFVKLSLFPER [SEQ ID NO: 383 KKLDTFFVKLSLFPER] please.
### Response rule met

### Prompt Continue with KKLDTFFLKLSLFTER [SEQ ID NO: 328 KKLDTFFLKLSLFTER]
### Response rule not met

### Prompt Field entry: KKLDTFFVKLSLSTER [SEQ ID NO: 372 KKLDTFFVKLSLSTER]
### Response rule met

### Prompt Do the same for DKLDTFFVKLSLFTER [SEQ ID NO: 269 DKLDTFFVKLSLFTER] please
### Response rule not met

### Prompt Now the binder KKLDTFFVKLSLFTET [SEQ ID NO: 392 KKLDTFFVKLSLFTET]
### Response rule not met

### Prompt Now this one: KKLDTFFVKLSAFTER [SEQ ID NO: 350 KKLDTFFVKLSAFTER]
### Response rule not met

### Prompt Continue with KKLDWFFVKLSLFTER [SEQ ID NO: 311 KKLDWFFVKLSLFTER]
### Response rule not met

### Prompt Proceed to PKLDTFFVKLSLFTER [SEQ ID NO: 277 PKLDTFFVKLSLFTER]
### Response rule not met
